- TARGET OR TEST SYSTEM: RIP1 (Homo sapiens)
- Sequence (Q13546 whole entry): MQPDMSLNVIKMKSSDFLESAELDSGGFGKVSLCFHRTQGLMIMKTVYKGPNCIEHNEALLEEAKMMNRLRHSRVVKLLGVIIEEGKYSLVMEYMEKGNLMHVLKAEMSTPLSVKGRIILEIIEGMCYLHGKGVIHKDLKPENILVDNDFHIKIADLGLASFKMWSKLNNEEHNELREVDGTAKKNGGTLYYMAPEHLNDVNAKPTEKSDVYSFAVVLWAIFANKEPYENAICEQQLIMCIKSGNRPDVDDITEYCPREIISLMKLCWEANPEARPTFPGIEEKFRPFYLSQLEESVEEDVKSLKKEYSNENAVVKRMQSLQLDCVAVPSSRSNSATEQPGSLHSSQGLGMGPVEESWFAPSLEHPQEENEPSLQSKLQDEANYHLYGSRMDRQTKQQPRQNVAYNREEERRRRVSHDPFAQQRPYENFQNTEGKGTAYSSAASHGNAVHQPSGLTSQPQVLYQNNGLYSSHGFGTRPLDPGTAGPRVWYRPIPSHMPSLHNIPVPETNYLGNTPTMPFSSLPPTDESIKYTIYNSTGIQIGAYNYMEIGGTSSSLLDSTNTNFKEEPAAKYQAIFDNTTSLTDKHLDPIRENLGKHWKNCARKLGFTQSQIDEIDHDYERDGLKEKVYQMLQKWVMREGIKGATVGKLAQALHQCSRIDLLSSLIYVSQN
- TEST DETAILS: Cellular RIP1 inhibitory activity: HT-29 necroptosis (TNFα/SMAC mimetic/zVAD-FMK) CellTiter-Glo viability assay
- CONDITION CONTEXT: HT-29 cells, TNF-α 10 ng/ml + SMAC mimetic 6 μM + zVAD-FMK 10 μM, 20 hours, geometric mean, read-out: EC50 Values of in vitro Cellular RIP1 Inhibitory Activity
EC50 values for the molecules below.
METRIC: EC50

INSERT INTO assay_data (line_notation, result) VALUES
  ('[2H]C([2H])(NC(=O)C1CCN(c2ncc(F)c(-c3c(C)cnn3C)n2)CC1)c1cc(F)cc(F)c1F', '0.1 to 100 nM'),
  ('CCN(Cc1cc(F)cc(F)c1)C(=O)C1CCN(c2cc(-c3c(C)cnn3C)ncn2)CC1', '100 to 1000 nM'),
  ('Cc1cnn(C)c1-c1nc(N2CCC(C(=O)N(C)Cc3nc(C)c(C)s3)CC2)ncc1F', '0.1 to 100 nM'),
  ('Cc1nc(C)n(-c2nc(N3CCC(C(=O)N(O)Cc4ncccc4F)CC3)ncc2F)n1', '0.1 to 100 nM'),
  ('Cc1cnn(C)c1-c1nc(N2CCC(C(=O)N(O)Cc3cnsc3)CC2)ncc1F', '0.1 to 100 nM'),
  ('Cc1cnn(C)c1-c1nc(N2CCC(C(=O)N(O)Cc3ccc(F)cn3)CC2)ncc1F', '0.1 to 100 nM'),
  ('CCN(Cc1sc(C)nc1C)C(=O)C1CCN(c2ncc(F)c(-c3c(C)cnn3C)n2)CC1', '1000 to 10000 nM'),
  ('Cc1cnn(C)c1-c1nc(N2CCC(C(=O)NCc3ccn(C)n3)CC2)ncc1F', '1000 to 10000 nM'),
  ('Cc1nnc(CNC(=O)C2CCN(c3ncc(F)c(-c4c(C)cnn4C)n3)CC2)s1', '1000 to 10000 nM'),
  ('Cc1nc(CN(C)C(=O)C2CCN(c3ncc(F)c(-c4c(C)cnn4C)n3)CC2)c(C)s1', '100 to 1000 nM'),
  ('Cc1nc(C)c(CNC(=O)C2CCN(c3ncc(F)c(-c4c(C)cnn4C)n3)CC2)s1', '100 to 1000 nM'),
  ('Cc1cnn(C)c1-c1nc(N2CCC(C(=O)N(O)Cc3cc(F)cc(F)c3)CC2)ncc1F', '0.1 to 100 nM'),
  ('CN(Cc1cc(F)cc(F)c1F)C(=O)C1CCN(c2ncc(F)c(-c3ncnn3C)n2)CC1', '0.1 to 100 nM'),
  ('Cc1cnn(C)c1-c1nc(N2CCC(C(=O)N(O)Cc3ccnn3C)CC2)ncc1F', '100 to 1000 nM'),
  ('Cc1cnn(C)c1-c1nc(N2CCC(F)(C(=O)N(O)Cc3cc(F)cc(F)c3)CC2)ncc1F', '0.1 to 100 nM'),
  ('Cc1cnn(C)c1-c1nc(N2CCC(C(=O)N[C@H](CO)c3ccccc3)CC2)ncc1F', '1000 to 10000 nM'),
  ('[2H]C([2H])([2H])N(C(=O)C1CCN(c2nc(-c3c(C)cnn3C)ncc2F)CC1)C([2H])([2H])c1cc(F)cc(F)c1F', '0.1 to 100 nM'),
  ('Cc1cnn(C)c1-c1nc(N2CCC(C(=O)NCc3cncs3)CC2)ncc1F', '100 to 1000 nM');

Origin of values: patent US20240217963A1
